- tgt: HCV 3CL proteinase (Human coronavirus 229E)
- Sequence (P0C6X1 2966-3267 limits assumed): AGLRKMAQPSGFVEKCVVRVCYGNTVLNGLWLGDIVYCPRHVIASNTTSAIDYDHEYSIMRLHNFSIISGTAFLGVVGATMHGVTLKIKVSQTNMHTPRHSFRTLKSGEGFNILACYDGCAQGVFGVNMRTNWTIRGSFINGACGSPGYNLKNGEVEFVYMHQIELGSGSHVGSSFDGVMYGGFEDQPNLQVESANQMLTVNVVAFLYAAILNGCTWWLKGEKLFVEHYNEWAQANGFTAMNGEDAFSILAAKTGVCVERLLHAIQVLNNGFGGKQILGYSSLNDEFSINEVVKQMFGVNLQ
- procedure_details: biochemical
- Assay type: binding, common cold virus (HCoV-229E antigenic type)
pKd: −log10 of the molar value.
Mark Criterion not met for pKd values under 5, and Criterion met for everything at or above.

| molecule | group |
| --- | --- |
| C[C@H]1O[C@@H](Oc2c(-c3ccc(O)c(O)c3)oc3cc(O)cc(O)c3c2=O)[C@H](O)[C@@H](O)[C@H]1O [IA-4, Quercetin-3-O-β-D-fucopyranoside] | Criterion met |
| O=c1c(O[C@@H]2O[C@H](CO)[C@@H](O)[C@H](O)[C@H]2O)c(-c2ccc(O)c(O)c2)oc2cc(O)cc(O)c12 [IA-1, Quercetin-3-O-β-D-glucopyranoside] | Criterion not met |
| O=c1c(OC2CCCCCC2)c(-c2ccc(O)c(O)c2)oc2cc(O)ccc12 | Criterion met |
| O=c1c(O[C@@H]2OC[C@@H](O)[C@@H](O)[C@@H]2O)c(-c2ccc(O)c(O)c2)oc2cc(O)cc(O)c12 [IA-3, Quercetin-3-O-β-D-arabinopyranoside] | Criterion met |
| O=c1c(OC2CCCCC2)c(-c2ccc(O)c(O)c2)oc2cc(O)ccc12 | Criterion met |
